# TARGET_OF_ASSAY: RSV prefusion F (preF), DS-Cav1 (Respiratory syncytial virus, UniProt P03420 26-513)
# PROTOCOL_TEXT: BLI, IgG on anti-human IgG sensor, 100 nM antigen
MEASURE: pKd
// pKd is dimensionless: -log10 of concentration (M)

Which pKd value belongs to ADI-41569 (antibody, V domains shown, also called Ab 847; Antibody Number 847) VH: EVQLLESGAEVKKPGSSVKVSCKASGGTFSTYAISWVRQAPGQGLEWMGGIIPVLGTTKYAQKFQDRVTITADESTSTAYMDLSGLRSDDTAVYYCARGVWGDCGRASCLFDWYFDLWGRGTLVTVSS VL: EIVMTQSPATLSVSPGERVTLSCSASQTVSSNLAWYQQKPGQAPRLLIYGASIRATDIPARFSGSGSRTEFTLTISSLQSEDFAVYYCQQYNNRPPLTFGGGTKVEIK ?
8.48

Quick one: pKd for ADI-41578 (antibody, V domains shown, also called Ab 852; Antibody Number 852) VH: EVQLVESGGGVVQPGRSLRLSCAASGFTLSSYVMDWVRQAPGKGLEWVAVISYDGSSKYYADSVKGRFTVSRDNSNNAMYLQMNSLRAEDTAVYYCARDPYYDILTGYSYFDYWGHGTTVTVSS VL: SYVLTQPPSVSGAPRQTATITCGGNNIGSKSVNWYQQKPGQAPVLVVYDDSARPSGIPERFSGSNSGNTATLTVSSVEAGDEADYFCQVWDTSSAPYPWVFGGGTKLTVL ?
9.60

Fill in: pKd of ADI-41611 (antibody, V domains shown, also called Ab 885; Antibody Number 885) VH: EVQLVESGGGLVKPGGSLRLSCAASGFTFSDYSMNWVRQAPGKGLEWVSSTSSGSTYIYYADSVKGRFTISRDNGKNSLYLQMNSLRAEDTAVYYCARAFRLGYDALDIWGQGTMVTVSS VL: DIRMTQSPSSLSASVGDRVTIICRASQSISNYLNWYQQKPGKAPKLLIYVASNLQSGVPSRFSGSGSGTDFTLTISSLQPEDFATYYCQQTYSPPPTFGGGTKLEIK is ___
8.51
